Assay: cn = amount concentration of the nth substance listed, in mol/dm3
Conditions: 313 K, Ring tensiometer, c1 = 1e-07
MEASUREMENT_LABEL: surface tension liquid-gas (mN/m)

>>> recorded_measurement("CCCCCCCCCCCCCC[N+](C)(C)C.[Br-] [tetradecyltrimethylammonium bromide] + O")
69.59
>>> recorded_measurement("CCCCCCCCCCCCCCCC[N+](C)(C)C.[Br-] [N,N,N-trimethyl-1-hexadecanaminium bromide] + O")
69.59
>>> recorded_measurement("CCCCCCCCCCCCCCCC[n+]1ccccc1.[Br-] [1-hexadecylpyridinium bromide] + O")
69.57
>>> recorded_measurement("CCCCCCCCCCCCN(C)CC(=O)[O-].[Na+] [sodium laurylsarcosinate] + O")
69.59
>>> recorded_measurement("CCCCCCCCCCCCCCCCS(=O)(=O)[O-].[Na+] [sodium hexadecylsulfonate] + O")
69.6
>>> recorded_measurement("CCCCCCCCCCCCOS(=O)(=O)[O-].[Na+] [sodium dodecyl sulfate] + O")
69.6
>>> recorded_measurement("CCCCCCCCCCCC[N+](C)(C)CC.[Br-] [dodecyl ethyl dimethylammonium bromide] + O")
69.6
>>> recorded_measurement("CCCCCCCCCCCC[N+](C)(C)Cc1ccccc1.[Br-] [benzenemethanaminium, N-dodecyl-N,N-dimethyl, bromide] + O")
69.58

* * *

surface tension liquid-gas listing for selected compounds.
Assay: cn = amount concentration of the nth substance listed, in mol/dm3
Settings: 313 K, Ring tensiometer, c1 = 5.01e-07
MEASUREMENT_LABEL: surface tension liquid-gas (mN/m)

>>> recorded_measurement("CCCCCCCCCCCCCC[N+](C)(C)C.[Br-] [tetradecyltrimethylammonium bromide] + O")
69.54
>>> recorded_measurement("CCCCCCCCCCCCN(C)CC(=O)[O-].[Na+] [sodium laurylsarcosinate] + O")
69.56
>>> recorded_measurement("CCCCCCCCCCCCCCCC[n+]1ccccc1.[Br-] [1-hexadecylpyridinium bromide] + O")
69.54
>>> recorded_measurement("CCCCCCCCCCCC[N+](C)(C)Cc1ccccc1.[Br-] [benzenemethanaminium, N-dodecyl-N,N-dimethyl, bromide] + O")
69.49
>>> recorded_measurement("CCCCCCCCCCCCCCCC[N+](C)(C)C.[Br-] [N,N,N-trimethyl-1-hexadecanaminium bromide] + O")
69.56
>>> recorded_measurement("CCCCCCCCCCCC[N+](C)(C)CC.[Br-] [dodecyl ethyl dimethylammonium bromide] + O")
69.6

* * *

Assay: cn = amount concentration of the nth substance listed, in mol/dm3
Conditions: 313 K, Ring tensiometer, c1 = 0.00501
MEASUREMENT_LABEL: surface tension liquid-gas (mN/m)

>>> recorded_measurement("CCCCCCCCCCCC[N+](C)(C)CC.[Br-] [dodecyl ethyl dimethylammonium bromide] + O")
48.85
>>> recorded_measurement("CCCCCCCCCCCCN(C)CC(=O)[O-].[Na+] [sodium laurylsarcosinate] + O")
25.48
>>> recorded_measurement("CCCCCCCCCCCC[N+](C)(C)Cc1ccccc1.[Br-] [benzenemethanaminium, N-dodecyl-N,N-dimethyl, bromide] + O")
32.67
>>> recorded_measurement("CCCCCCCCCCCCCC[N+](C)(C)C.[Br-] [tetradecyltrimethylammonium bromide] + O")
35.38

* * *

Test: cn = amount concentration of the nth substance listed, in mol/dm3
Details: 313 K, Ring tensiometer, c1 = 0.000631
surface tension liquid-gas listing for selected compounds.
MEASUREMENT_LABEL: surface tension liquid-gas (mN/m)

>>> recorded_measurement("CCCCCCCCCCCCCC[N+](C)(C)C.[Br-] [tetradecyltrimethylammonium bromide] + O")
55.41
>>> recorded_measurement("CCCCCCCCCCCCOS(=O)(=O)[O-].[Na+] [sodium dodecyl sulfate] + O")
65.14
>>> recorded_measurement("CCCCCCCCCCCCN(C)CC(=O)[O-].[Na+] [sodium laurylsarcosinate] + O")
46
>>> recorded_measurement("CCCCCCCCCCCCCCCC[n+]1ccccc1.[Br-] [1-hexadecylpyridinium bromide] + O")
43.87
